- TARGET DESC: human MASP1 (Homo sapiens (Human))
- Sequence (P48740 other isoform, or with tags, fused parts or gaps): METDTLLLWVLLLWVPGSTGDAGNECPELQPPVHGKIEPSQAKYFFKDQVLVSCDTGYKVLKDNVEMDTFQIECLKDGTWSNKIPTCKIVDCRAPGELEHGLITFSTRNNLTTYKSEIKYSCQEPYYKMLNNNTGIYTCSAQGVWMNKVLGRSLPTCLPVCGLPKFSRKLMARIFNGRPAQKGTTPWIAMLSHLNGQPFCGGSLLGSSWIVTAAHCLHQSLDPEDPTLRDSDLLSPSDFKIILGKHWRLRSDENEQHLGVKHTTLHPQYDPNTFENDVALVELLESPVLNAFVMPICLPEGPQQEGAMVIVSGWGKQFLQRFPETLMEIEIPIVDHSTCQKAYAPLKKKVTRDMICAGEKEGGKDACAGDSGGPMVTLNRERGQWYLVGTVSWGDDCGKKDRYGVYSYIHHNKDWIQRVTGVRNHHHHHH
- MEASUREMENT NOTES: Biochemical human MASP1 assay (FRET substrate)
- TEST CONTEXT: Average IC50; recombinant human MASP1; read-out: human MASP1 IC50
Where a SMILES comes first, the peptide text is derived from it. Bridges are numbered along the chain shown (N, C = ends). [ ]: non-standard residue; d: D form. Oic = O=C(O)[C@@H]1C[C@@H]2CCCC[C@@H]2N1; tBuAla = CC(C)(C)C[C@H](N)C(=O)O; Pen = CC(C)(S)[C@H](N)C(=O)O; NMeC = CN[C@@H](CS)C(=O)O; Orn = NCCC[C@H](N)C(=O)O; Abu = CC[C@H](N)C(=O)O; Ahx = NCCCCCC(=O)O
VALUE TYPE: IC50 (µM)

COMPOUND: CC[C@H](C)[C@@H]1NC(=O)CCCNC(=O)[C@H](CC(=O)O)NC(=O)[C@@H]2CCCN2C(=O)[C@H]([C@@H](C)CC)NC(=O)[C@H]2NC(=O)[C@H]([C@@H](C)CC)NC(=O)[C@@H]3CCCN3C(=O)[C@@H]3CCCN3C(=O)[C@H](CC(C)(C)C)NC(=O)[C@H](CO)NC(=O)[C@H](CCCNC(=N)N)NC(=O)[C@H](CO)NC(=O)[C@H](CSSC2(C)C)NC1=O
TARGET DESC: human MASP1 (Homo sapiens (Human))
UNIT TAG: µM
NUMERIC RESULT: 0.0041
--
COMPOUND: CC[C@H](C)[C@@H]1NC(=O)[C@H](C)NC(=O)CCCCCNC(=O)[C@H](CC(=O)O)NC(=O)[C@@H]2CCCN2C(=O)[C@H]([C@@H](C)CC)NC(=O)[C@@H]2CSSC[C@H](NC1=O)C(=O)N[C@@H](CO)C(=O)N[C@@H](CCCNC(=N)N)C(=O)N[C@@H](CO)C(=O)N[C@@H](CC(C)(C)C)C(=O)N1CCC[C@H]1C(=O)N1CCC[C@H]1C(=O)N[C@@H]([C@@H](C)CC)C(=O)N2 [Example 46] (cyclo(AICSRS[tBuAla]PPICIPD[Ahx]); disulfide 3-11)
TARGET DESC: human MASP1 (Homo sapiens (Human))
UNIT TAG: µM
NUMERIC RESULT: 0.056
--
COMPOUND: CC[C@H](C)[C@@H]1NC(=O)[C@H](C)NC(=O)CCCCCNC(=O)[C@@H]2CCCN2C(=O)[C@H]([C@@H](C)CC)NC(=O)[C@@H]2CSSC[C@H](NC1=O)C(=O)N[C@@H](CO)C(=O)N[C@@H](CCCNC(=N)N)C(=O)N[C@@H](CO)C(=O)N[C@@H](CC(C)C)C(=O)N1CCC[C@H]1C(=O)N1[C@@H](C[C@@H]3CCCC[C@@H]31)C(=O)N[C@@H]([C@@H](C)CC)C(=O)N2 [Example 25] (cyclo(AICSRSLP[Oic]ICIP[Ahx]); disulfide 3-11)
TARGET DESC: human MASP1 (Homo sapiens (Human))
UNIT TAG: µM
NUMERIC RESULT: 0.06
--
COMPOUND: CC[C@H](C)[C@@H]1NC(=O)[C@H](C)NC(=O)CCCCCNC(=O)[C@H]([C@@H](C)CC)NC(=O)[C@H]2NC(=O)[C@H]([C@@H](C)CC)NC(=O)[C@@H]3CCCN3C(=O)[C@@H]3CCCN3C(=O)[C@H](CC(C)(C)C)NC(=O)[C@H](CO)NC(=O)[C@H](CCCNC(=N)N)NC(=O)[C@H](CO)NC(=O)[C@H](CSSC2(C)C)NC1=O [Example 72] (cyclo(AICSRS[tBuAla]PPI[Pen]I[Ahx]); disulfide 3-11)
TARGET DESC: human MASP1 (Homo sapiens (Human))
UNIT TAG: µM
NUMERIC RESULT: 0.0063
--
COMPOUND: CC[C@H](C)[C@@H]1NC(=O)CNC(=O)[C@@H](N)CCC(=O)NCCCC[C@@H](C(N)=O)NC(=O)[C@@H]2CCCN2C(=O)[C@H]([C@@H](C)CC)NC(=O)[C@H]2NC(=O)[C@H]([C@@H](C)CC)NC(=O)[C@@H]3C[C@@H]4CCCC[C@@H]4N3C(=O)[C@@H]3CCCN3C(=O)[C@H](CC(C)C)NC(=O)[C@H](CO)NC(=O)[C@H](CCCNC(=N)N)NC(=O)[C@H](CO)NC(=O)[C@H](CSSC2(C)C)NC1=O [Example 90] (H-EGICSRSLP[Oic]I[Pen]IPK-NH2; lactam 1-15; disulfide 4-12)
TARGET DESC: human MASP1 (Homo sapiens (Human))
UNIT TAG: µM
NUMERIC RESULT: 0.0098
--
COMPOUND: CC[C@@H]1NC(=O)CCCCCNC(=O)[C@H](CC(=O)O)NC(=O)[C@@H]2CCCN2C(=O)[C@H]([C@@H](C)CC)NC(=O)[C@@H]2CSSC[C@H](NC(=O)[C@H]([C@@H](C)CC)NC1=O)C(=O)N[C@@H](CO)C(=O)N[C@@H](CCCNC(=N)N)C(=O)N[C@@H](CO)C(=O)N[C@@H](CC(C)(C)C)C(=O)N1CCC[C@H]1C(=O)N1CCC[C@H]1C(=O)N[C@@H]([C@@H](C)CC)C(=O)N2C [Example 33] (cyclo([Abu]ICSRS[tBuAla]PPI[NMeC]IPD[Ahx]); disulfide 3-11)
TARGET DESC: human MASP1 (Homo sapiens (Human))
UNIT TAG: µM
NUMERIC RESULT: 0.028
--
COMPOUND: CC[C@H](C)[C@@H]1NC(=O)CNC(=O)CCCCCNC(=O)[C@H](CC(=O)O)NC(=O)[C@@H]2CCCN2C(=O)[C@H]([C@@H](C)CC)NC(=O)[C@H]2NC(=O)[C@H]([C@@H](C)CC)NC(=O)[C@@H]3CCCN3C(=O)[C@@H]3CCCN3C(=O)[C@H](CC(C)(C)C)NC(=O)[C@H](CO)NC(=O)[C@H](CCCNC(=N)N)NC(=O)[C@H](CO)NC(=O)[C@H](CSSC2(C)C)NC1=O [Example 28] (cyclo([Ahx]GICSRS[tBuAla]PPI[Pen]IPD); disulfide 4-12)
TARGET DESC: human MASP1 (Homo sapiens (Human))
UNIT TAG: µM
NUMERIC RESULT: 0.019
--
COMPOUND: CC[C@H](C)[C@@H]1NC(=O)[C@@H](N)CCCNC(=O)[C@@H]2CCCN2C(=O)[C@H]([C@@H](C)CC)NC(=O)[C@H]2NC(=O)[C@H]([C@@H](C)CC)NC(=O)[C@@H]3CCCN3C(=O)[C@@H]3CCCN3C(=O)[C@H](CC(C)(C)C)NC(=O)[C@H](CO)NC(=O)[C@H](CCCNC(=N)N)NC(=O)[C@H](CO)NC(=O)[C@H](CSSC2(C)C)NC1=O [Example 71] (H-[Orn]ICSRS[tBuAla]PPI[Pen]IP; lactam 1-C; disulfide 3-11)
TARGET DESC: human MASP1 (Homo sapiens (Human))
UNIT TAG: µM
NUMERIC RESULT: 0.021
--
COMPOUND: CC[C@H](C)[C@@H]1NC(=O)[C@H](C)NC(=O)CCCCCNC(=O)[C@@H]2CCCN2C(=O)[C@H]([C@@H](C)CC)NC(=O)[C@H]2NC(=O)[C@H]([C@@H](C)CC)NC(=O)[C@@H]3CCCN3C(=O)[C@@H]3CCCN3C(=O)[C@H](CC(C)(C)C)NC(=O)[C@H](CO)NC(=O)[C@H](CCCNC(=N)N)NC(=O)[C@H](CO)NC(=O)[C@H](CSSC2(C)C)NC1=O [Example 53] (cyclo(AICSRS[tBuAla]PPI[Pen]IP[Ahx]); disulfide 3-11)
TARGET DESC: human MASP1 (Homo sapiens (Human))
UNIT TAG: µM
NUMERIC RESULT: 0.00675

###

Measured IC50, listed per entry.
- TARGET DESC: human MASP2 (Homo sapiens (Human))
- Sequence (O00187 other isoform, or with tags, fused parts or gaps): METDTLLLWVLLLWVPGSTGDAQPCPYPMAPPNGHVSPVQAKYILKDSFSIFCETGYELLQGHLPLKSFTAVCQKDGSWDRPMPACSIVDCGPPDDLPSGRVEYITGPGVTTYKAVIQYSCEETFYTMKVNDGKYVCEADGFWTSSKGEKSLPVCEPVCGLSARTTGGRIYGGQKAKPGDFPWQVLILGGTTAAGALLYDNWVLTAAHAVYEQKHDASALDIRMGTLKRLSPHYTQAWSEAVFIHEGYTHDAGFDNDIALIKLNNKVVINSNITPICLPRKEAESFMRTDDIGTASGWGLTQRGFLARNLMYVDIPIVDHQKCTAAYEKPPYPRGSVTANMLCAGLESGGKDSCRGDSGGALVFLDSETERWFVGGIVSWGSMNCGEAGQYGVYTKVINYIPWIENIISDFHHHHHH
- MEASUREMENT NOTES: Biochemical human MASP2 assay (FRET substrate)
- TEST CONTEXT: Average IC50; recombinant human MASP2; read-out: human MASP2 IC50
Where a SMILES comes first, the peptide text is derived from it. Bridges are numbered along the chain shown (N, C = ends). [ ]: non-standard residue; d: D form. tBuAla = CC(C)(C)C[C@H](N)C(=O)O; Pen = CC(C)(S)[C@H](N)C(=O)O; NMeC = CN[C@@H](CS)C(=O)O; Orn = NCCC[C@H](N)C(=O)O; Ahx = NCCCCCC(=O)O

COMPOUND: CC[C@H](C)[C@@H]1NC(=O)[C@@H](N)CCCNC(=O)[C@@H]2CCCN2C(=O)[C@H]([C@@H](C)CC)NC(=O)[C@H]2NC(=O)[C@H]([C@@H](C)CC)NC(=O)[C@@H]3CCCN3C(=O)[C@@H]3CCCN3C(=O)[C@H](CC(C)(C)C)NC(=O)[C@H](CO)NC(=O)[C@H](CCCNC(=N)N)NC(=O)[C@H](CO)NC(=O)[C@H](CSSC2(C)C)NC1=O [Example 71] (H-[Orn]ICSRS[tBuAla]PPI[Pen]IP; lactam 1-C; disulfide 3-11)
UNIT TAG: µM
IC50: 0.024

COMPOUND: CC[C@H](C)[C@@H]1NC(=O)CNC(=O)CCCCCNC(=O)[C@H](CC(=O)O)NC(=O)[C@@H]2CCCN2C(=O)[C@H]([C@@H](C)CC)NC(=O)[C@@H]2CSSC[C@H](NC1=O)C(=O)N[C@@H](CO)C(=O)N[C@@H](CCCNC(=N)N)C(=O)N[C@@H](CO)C(=O)N[C@@H](CC(C)(C)C)C(=O)N1CCC[C@H]1C(=O)N1CCC[C@H]1C(=O)N[C@@H]([C@@H](C)CC)C(=O)N2C [Example 30] (cyclo([Ahx]GICSRS[tBuAla]PPI[NMeC]IPD); disulfide 4-12)
UNIT TAG: µM
IC50: 0.065
